For each entry below, report its amyloid nucleation score value.
# experiment description: amyloid nucleation score (Sup35N fusion, yeast selection) (log enrichment); library NNK3; higher = more nucleation; inactive = no reads after selection;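 note: zero at mode of non-aggregating sequences after 7 days selection at 30°C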
Numbers only.

Answered examples (3):
[
  {
    "item sequence": "TFWVFIAQKRCSGGKYGCMC",
    "amyloid nucleation score": -0.097
  },
  {
    "item sequence": "ISTVFLVISSAGTCPSHDKE",
    "amyloid nucleation score": 1.32
  },
  {
    "item sequence": "IFWYEDKIYKMGWQFGGIAY",
    "amyloid nucleation score": 1.1
  }
]

amyloid nucleation score recorded for this sequence, `TLHCSVYMCTTYGNTHLYVH` , is 2.2

---

# experiment description: amyloid nucleation score (Sup35N fusion, yeast selection) (log enrichment); library NNK3; higher = more nucleation; inactive = no reads after selection
property: amyloid nucleation score

Answered examples (5):
[
  {
    "substance": "MHYICAGSGSWAI",
    "property": "amyloid nucleation score",
    "obs value": "inactive"
  },
  {
    "substance": "KDSRSCLSFL",
    "property": "amyloid nucleation score",
    "obs value": "inactive"
  },
  {
    "substance": "YQNILLAYYDWVVLYQ",
    "property": "amyloid nucleation score",
    "obs value": "inactive"
  },
  {
    "substance": "FHVEVVAGCIVGNFGGVCVI",
    "property": "amyloid nucleation score",
    "obs value": 0.5
  },
  {
    "substance": "HKGAQPVKVKSGQSDTRPPS",
    "property": "amyloid nucleation score",
    "obs value": "inactive"
  }
]

Look up amyloid nucleation score for the entries below, preserving their order.
1. RLSAPCCWYNTLIE
2. STNPPNRL
3. KIGGVYVLVS
4. YESHLLRNRDSRTYSR
5. FLFILPDNGPRWCSYTVGNV

Completion:
1. 1.96
2. inactive
3. inactive
4. inactive
5. inactive

Look up amyloid nucleation score for the entries below, preserving their order.
1. NDARAVGCTLRYKGLAIYSY
2. TKGNCSAHPRRL
3. IFCYPQAQS
4. TRYLSSFISYGEDSMHVFCG
5. RILLNANRYTMPSGVYDHRA
6. KCIGDLTSRMDLR
7. ELVGIIDGCLKNMSSFTMRV
8. LADFRGQSLTDEGCMWTSSG

Completion:
["inactive", -0.581, "inactive", "inactive", "inactive", "inactive", "inactive", "inactive"]

Look up amyloid nucleation score for the entries below, preserving their order.
1. VIVYLFICNADLYFYKMSDF
2. LDTLLVYHFRKERVLNTGVN
3. LSLWMGVEDFVLCGSVNTSR
4. KIYIILNGWQVSLIDYYGGK
5. TRWGFVCNKTHVLGDMSIGM
6. DQGLNC
7. ASILEFPRSTKSTSLGRSGR
8. TMSIFDPVE

Completion:
[1.72, "inactive", "inactive", 2.58, "inactive", "inactive", "inactive", 1.09]

---

For each entry below, report its amyloid nucleation score value.
# experiment description: amyloid nucleation score (Sup35N fusion, yeast selection) (log enrichment); library NNK1; higher = more nucleation; inactive = no reads after selection
Give bare numbers.

Answered examples (6):
[
  {
    "substance": "YAKVLTK",
    "obs value": -0.104
  },
  {
    "substance": "YFIFFLSNVFASSVIILMYM",
    "obs value": -0.071
  },
  {
    "substance": "GYSGGKLLVGGTYTRIV",
    "obs value": 0.243
  },
  {
    "substance": "VCHAVRISISSSASTLAE",
    "obs value": -0.122
  },
  {
    "substance": "IKMYACMYWLVEFLVN",
    "obs value": -0.046
  },
  {
    "substance": "LFMFRLKYVIHWDIG",
    "obs value": 0.911
  }
]

Look up amyloid nucleation score for the entries below, preserving their order.
1. ICQTFASCEFDGCLLH
2. YVVWQFNWLDTTHHFFELSG
3. GPALTHTHS

Completion:
[3.47, -0.022, 0.306]

Look up amyloid nucleation score for the entries below, preserving their order.
1. VRDSGRIGMFKMGKV
2. GWMNCHNSTWRVGQALSSSR
3. SCTLYYTSGSIMYAVMVLQE
4. CFILTVTYLNVGGNRMTAFH
5. LDRKIK
6. PLYGASDK
7. FSPFLIMVSESPFHPIPELR

Completion:
1. -0.824
2. 0.282
3. 0.526
4. 3.36
5. 0.651
6. -0.277
7. -0.991

Look up amyloid nucleation score for the entries below, preserving their order.
1. VDVHVGCRTIRL
2. GLEDRNRWKVWFITLCRGIA

Completion:
[0.034, 0.71]

Look up amyloid nucleation score for the entries below, preserving their order.
1. IHVLADIYCVWGGLKEFWTS
2. RFRKHRFVVLLCYWCLVFRE
3. VGSTLYHLRKDMSTLSPGMY
4. PDDSKFSNV

Completion:
1: 0.374; 2: 0.766; 3: 0.012; 4: 0.902
